Experiment: qHTS Assay for Rab9 Promoter Activators; further: nearly all actives have a fitted effect of over 60% in size
Conditions: Huh7 Rab9 promoter-luciferase reporter, luminescence, 24 h; series mostly up to 9.22 µM
The campaign covered roughly 320,000 compounds. About 9,100 (2.8%) were called active. About 3% were inconclusive and are not listed. The call rests on the fitted dose curve; in most records, active means well fitted activation curve with a large enough effect; inconclusive means small, poorly fitted or top-dose-only effect; inactive means no such curve, though single readings can be large or run the other way. The list comes from a sample in which actives are over-represented; it also holds close analogues and randomly drawn compounds.
API: response.call in Y (active), N (inactive)

compound	group_label
CCN(CC)CCN1C(=O)C(=O)/C(=C(/O)c2cnn(-c3ccccc3)c2C)C1c1cccs1 (stereo unspecified)	Y
COc1ccc(C(C)(C)C)cc1NC(=O)CCN1C(=O)C2CCCCC2C1=O (stereo unspecified)	N
CCSc1ccccc1C(=O)Nc1ccc2c(c1)OCO2	N
FC(F)(F)c1ccnc(Oc2ccc(C3=NCCS3)cc2)c1	Y
CC(C)C(=O)Nc1c(O)c2ccccc2[nH]c1=O	N
CCc1nc(SCC(=O)NNC(=O)c2ccc(C)cc2)c2ccccc2n1	N
O=C(CSC(=S)N1CCOCC1)c1ccccc1	Y
CC(C)CNC(=S)Nc1ccc(F)cc1	N

Problem: Name the outcome recorded for O=Cc1ccc(Oc2cccc(C(F)(F)F)c2)nc1 in the assay.
Result: N

Problem: Further, for Cc1ccc(-n2c(SCC(=O)N3CCC(C(=O)O)CC3)nc3ccccc3c2=O)cc1C ?
Result: Y

Problem: Cool, now O=C(Nc1cc(S(=O)(=O)N2CCOCC2)ccc1OCC(F)(F)F)c1ccc(N2CCCC2=O)cc1
Result: N

* * *

Assay: qHTS Assay for Rab9 Promoter Activators; further: nearly all actives have a fitted effect of over 60% in size
Settings: Huh7 Rab9 promoter-luciferase reporter, luminescence, 24 h; series mostly up to 9.22 µM
Out of some 320,000 compounds screened, about 9,100 (2.8%) were called active. Another 3% or so got no clear call; they are omitted. Calls come from the whole dose curve; as a rule, active = well fitted activation curve with a large enough effect; inconclusive = small, poorly fitted or top-dose-only effect; inactive = no such curve, though single readings can be large or run the other way. The full list was thinned out, with actives kept by preference.
Answer with one of the outcomes Y for active, N for inactive

Worked cases, answers included:
compound	group_label
O=C(O[C@@H]1[C@H](Cc2ccccc2)NS(=O)(=O)[C@H]2C[C@@H]3C=C[C@]12O3)c1ccccc1Br	N
CC(=O)c1c(C)[nH]c(C(=O)OCC(=O)Nc2c(C)n(C)n(-c3ccccc3)c2=O)c1C	N
CCN(CC(=O)Nc1ccccc1C(=O)NC1CC1)Cc1cccs1	N
COc1ccc(-n2ncc3c(N4CCCc5ccccc54)ncnc32)cc1	Y

Problem: What was the test verdict on COc1ccc2oc(=O)c(C(=O)N3CCCc4ccccc43)cc2c1 ?
Result: N

Problem: Item: CC(=NCc1ccco1)c1c(C(F)(F)F)[nH]n(-c2nc3ccccc3s2)c1=O
Result: Y

Problem: Similarly, CC(C)c1ccc(Nc2nnc(SCC(=O)c3nnc(-c4ccccc4)o3)s2)cc1 ?
Result: Y

Problem: Request: O=C(CSc1nnc(Nc2ccccc2)s1)Nc1cccnc1Cl
Result: N

Problem: Same for CCOc1ccc(OCC(=O)OC(C)C(=O)NC2CCCCC2C)cc1 (stereo not given)
Result: N

Problem: Another compound to check: CC(=NCc1ccco1)C1=C(O)c2ccccc2C1=O
Result: N

* * *

Experiment: qHTS Assay for Rab9 Promoter Activators; further: nearly all actives have a fitted effect of over 60% in size
Conditions: Huh7 Rab9 promoter-luciferase reporter, luminescence, 24 h; series mostly up to 9.22 µM
The whole screen tested about 320,000 compounds, of which about 9,100 (2.8%) were called active. About 3% were inconclusive and are not listed. The call rests on the fitted dose curve; in most records, active means well fitted activation curve with a large enough effect; inconclusive means small, poorly fitted or top-dose-only effect; inactive means no such curve, though single readings can be large or run the other way. The entries come from a sample that favours actives as a whole.
Output constraint: value belongs to active, inactive

Previously resolved entries follow.
molecule	group_label
Cc1cccc(NC(=O)c2cccnc2Cl)n1	inactive
Cc1ccc(NS(=O)(=O)c2ccc3c(c2)CC(=O)N3)cc1Cl	inactive

Problem: Test call, this molecule: CC(=O)Nc1ccc(NC(=O)C(NS(=O)(=O)c2ccc3c(c2)OCCO3)C(C)C)cc1 (stereo not given)
Result: inactive
